Assay: gradient 5% acetonitrile 3 min, to 50% in 2 min, to 85% in 15 min, held 3 min, 100 µL/min
Conditions: column: Zorbax Extend-C18 2.1 x 50 mm; eluents: water / acetonitrile, 0.1% formic acid
PROPERTY LABEL: RP-LC retention time (s)

[I] COC(=O)c1ccc2c(=O)n(-c3cccc(OC)c3)c(N3CCOCC3)nc2c1
[II] CC(C)(C)c1ccc(NC(=O)NCCN2CCN(S(C)(=O)=O)CC2)cc1
Among I and II , whose measured RP-LC retention time is the smaller figure? Write the label of whichever entry you select. II

---

Experiment: gradient 5% acetonitrile 3 min, to 50% in 2 min, to 85% in 15 min, held 3 min, 100 µL/min
Details: column: Zorbax Extend-C18 2.1 x 50 mm; eluents: water / acetonitrile, 0.1% formic acid
PROPERTY LABEL: RP-LC retention time (s)

Sample records with RP-LC retention time:
• CCCNc1nc(N2CCOCC2)nc(N2CC3CC(C2)c2cccc(=O)n2C3)n1 (stereo not drawn) = 562
• CC1CCCN(C(=O)c2cn(-c3cc(-c4nc(C(C)(C)C)no4)ccn3)cn2)C1 (stereo not drawn) = 1040
• CCn1c(=O)oc2cc(-c3noc(-c4cccc(F)c4)n3)ccc21 = 1110
• CC(C)Cc1ccc(S(=O)(=O)N2CCC3(CC2)NCCN=C3NCc2ccccc2)cc1 = 856
• Cc1nc(CC(=O)NCc2ccccc2C(F)(F)F)sc1C(=O)NCC(C)C = 847

[1] COc1ccc(Nc2nc(N3CCN(c4ccccc4OC)CC3)nc3c2C(=O)CCC3)cc1
[2] COc1ccc(Cn2nc3ccc(S(=O)(=O)N4CCCCCC4)cn3c2=O)cc1F
Which numeric RP-LC retention time is bigger, that of 1 or that of 2 ? State the label of the item chosen. 1
(1: 1170 s, 2: 681 s)

[1] Cc1ccc(NC(=O)C(C)C2CCN(C(=O)Nc3ccccc3)CC2)cc1C (stereo not drawn)
[2] CS(=O)(=O)N1CC[C@H]2CN(Cc3cn[nH]c3-c3ccc(F)cc3)C[C@@]2(CF)C1
Higher RP-LC retention time between 1 and 2 ? Answer with the label corresponding to your selection. 1
(1: 900 s, 2: 576 s)

[1] Cc1nc(-c2cc(S(=O)(=O)N3CCC(C(=O)NCc4ccco4)CC3)c(C)s2)no1
[2] CC(C)(C)c1ccc2c(c1)OCC(=O)N2Cc1nc(-c2ccc3c(c2)OCO3)no1
Compare 1 and 2 and name the one whose reported RP-LC retention time is smaller. State your choice using its label. 1

[I] Cc1ccc(CN2CCN(C3CCN(S(=O)(=O)c4ccc(F)c(Cl)c4)CC3)C(=O)C2=O)cc1
[II] CCc1cccc(N2C(=O)c3c(C(=O)OC)ncn3CC2(C)C(=O)NC2CCCC2)c1 (stereo not drawn)
Please state the entry with greater RP-LC retention time among I and II . // return label of chosen record I
(I: 926 s, II: 615 s)

---

Assay: gradient 5% acetonitrile 3 min, to 50% in 2 min, to 85% in 15 min, held 3 min, 100 µL/min
Settings: column: Zorbax Extend-C18 2.1 x 50 mm; eluents: water / acetonitrile, 0.1% formic acid
PROPERTY LABEL: RP-LC retention time (s)

Illustrative cases are given below, each with its answer.
- O=C(Nc1nc(-c2ccccc2)cs1)C(=O)c1c[nH]c2ccccc12: 1070
- CCC1Oc2ccc(S(=O)(=O)N3CCC(C(=O)Nc4ccc(C)cc4)CC3)cc2NC1=O (stereo not given): 903
- CCOC(=O)c1ccc(NC(=O)C2CCN(c3c(C(=O)N(CC)CC)cnc4snc(C)c34)CC2)cc1: 967
- COc1ccc(-c2nc3cc(C)ccn3c2NC(=O)Cc2cccc3ccccc23)cc1: 726
- COC(=O)C1=CN(c2cccc(F)c2)c2cc(F)ccc2S1(=O)=O: 869

[1] Cc1cc(C)n(-c2ccc(=O)n(C(C)C(=O)NCCc3csc(-c4ccccc4)n3)n2)n1 (stereo not given)
[2] Cc1nc(-c2ccncc2)nc2c1CCC(=O)N2CCN1CCCC1
// which entry reports the smaller RP-LC retention time, 1 or 2 ? State your choice using its label. 2
(2: 533 s, 1: 780 s)

---

Test: gradient 5% acetonitrile 3 min, to 50% in 2 min, to 85% in 15 min, held 3 min, 100 µL/min
Conditions: column: Zorbax Extend-C18 2.1 x 50 mm; eluents: water / acetonitrile, 0.1% formic acid
PROPERTY LABEL: RP-LC retention time (s)

[1] Fc1ccc(-c2noc(-c3ccc(NCC4CCCO4)nc3)n2)cc1 (stereo not given)
[2] CCOC(=O)C1CCN(S(=O)(=O)c2cc3n(c2)CCCNC3=O)CC1
Endpoint returns whichever of 1 and 2 has the numerically higher RP-LC retention time. // respond with label for picked entry 1
(1: 940 s, 2: 652 s)

[I] O=S(=O)(c1ccc2c(c1)CCCC2)N1CCCC1c1nc(-c2cccc(F)c2)no1 (stereo not given)
[II] CCCCCc1cccnc1
I'd appreciate it if you could identify which of I and II has the greater RP-LC retention time. Lab log: write the label of the selected item as the result. I

---

Experiment: gradient 5% acetonitrile 3 min, to 50% in 2 min, to 85% in 15 min, held 3 min, 100 µL/min
Details: column: Zorbax Extend-C18 2.1 x 50 mm; eluents: water / acetonitrile, 0.1% formic acid
PROPERTY LABEL: RP-LC retention time (s)

- Cn1c(=O)n(C)c2cc(CNc3ccc4[nH]c(=O)[nH]c4c3)ccc21: 561
- Cc1c(S(=O)(=O)N2CCCC(C)C2)c(C)n(C)c1C(=O)Nc1ccccc1F (stereo not given): 895
- Cn1cc(CCN2CCN(S(=O)(=O)c3ccc4c(c3)CCC4)CC2)c2cccnc21: 668

[P] Cc1ccc(-c2nc(C)cc(SCC(=O)Nc3cc(C)ccc3C)n2)cc1
[Q] CC(C)c1nc(C2CN(C(=O)Nc3cc(F)cc(F)c3)C2)n(C)n1
Kindly identify the item with the lower RP-LC retention time figure among these two: P and Q Kindly give the label for the entry you pick. Q

---

Test: gradient 5% acetonitrile 3 min, to 50% in 2 min, to 85% in 15 min, held 3 min, 100 µL/min
Conditions: column: Zorbax Extend-C18 2.1 x 50 mm; eluents: water / acetonitrile, 0.1% formic acid
PROPERTY LABEL: RP-LC retention time (s)

The examples below pair each entry with its known result.
• COC(=O)c1ccc(NC(=O)c2sc(-c3cn(C(C)C)c4ncccc34)nc2C)cc1 = 1090
• CN(C)C1(CC2CC2)CCN(C(=O)c2cccs2)CC1 = 584
• CCc1noc2nc(CCC(=O)NCCOC)nc(N3CCCCC3)c12 = 724
• COc1ccccc1CNC(=O)c1ccc2c(c1)NC(=O)C1CCCCN21 (stereo not given) = 809
• O=C1Nc2ccc(S(=O)(=O)N3CCN(c4ccccn4)CC3)cc2C1=C1CCCC1 = 662

[A] Cc1ccc2[nH]cc(CCNC(=O)C3CCN(c4ccc(Cl)cc4)C3=O)c2c1 (stereo not given)
[B] CN(C)c1cc(C(=O)Nc2ccccc2)c2ccccc2n1
Sort A and B by RP-LC retention time descending and give the first. Please reply using the label of the selected record. A

---

Assay: gradient 5% acetonitrile 3 min, to 50% in 2 min, to 85% in 15 min, held 3 min, 100 µL/min
Details: column: Zorbax Extend-C18 2.1 x 50 mm; eluents: water / acetonitrile, 0.1% formic acid
PROPERTY LABEL: RP-LC retention time (s)

Study these solved cases before continuing.
* O=C(Cc1c[nH]c2ncccc12)NCc1ccc(Br)cc1 | 666
* CCOCCCNC(=O)N1CC(Oc2cccc(-c3nc(C)no3)c2)C1 | 735
* Cc1ccc(-c2nc(C3CCN(S(=O)(=O)c4ccc5c(c4)CCC5)CC3)no2)cc1 | 1310
* COc1ccc(-c2noc(C3CCCN3C(=O)Nc3cc(C)ccc3C)n2)cc1 (configuration not stated) | 1020
* Cc1cc(NC(=O)Cn2cnc(-c3cccs3)cc2=O)no1 | 669
* Cc1cccc(NC(=O)Nc2c(-c3cccc(C)c3)nc3ccccn23)c1 | 716

[I] Cc1ccc(CNC(=O)C2(C)CCCN(C(=O)Nc3ccc(Br)c(C)c3)C2)cc1 (configuration not stated)
[II] O=C(NCc1cc(F)ccc1F)C1CCN(C(=O)c2ncn3c2COC(c2ccccc2)C3)CC1 (configuration not stated)
I need your help: which of the pair I , II has higher RP-LC retention time? Provide the label of your selected option as the answer. I

[P] Cc1ccc(N2CCCS2(=O)=O)cc1NS(=O)(=O)CCc1ccccc1
[Q] COc1ccccc1-c1nnc(-c2cc(S(=O)(=O)N3CCC(C)CC3)ccc2Cl)o1
Compare reported RP-LC retention time values for P and Q . Which is lower? Give the chosen item's label as your response. P

[P] Cc1cc(-c2nnc(-c3ccc(F)cc3)o2)c(C)n1CC(=O)NCc1ccc(F)cc1F
[Q] CCC(=O)NCc1nc2c(n1C)CN(S(=O)(=O)c1cccc(F)c1)CC2
Field: lower recorded RP-LC retention time (choose P or Q ) Respond with the label that goes with your answer. Q

Every entry's value here was drawn from the METLIN SMRT retention time set (Domingo-Almenara et al. 2019).
